# SYSTEM TESTED: BTK (Homo sapiens)
# Sequence (Q06187 402-655 limits assumed): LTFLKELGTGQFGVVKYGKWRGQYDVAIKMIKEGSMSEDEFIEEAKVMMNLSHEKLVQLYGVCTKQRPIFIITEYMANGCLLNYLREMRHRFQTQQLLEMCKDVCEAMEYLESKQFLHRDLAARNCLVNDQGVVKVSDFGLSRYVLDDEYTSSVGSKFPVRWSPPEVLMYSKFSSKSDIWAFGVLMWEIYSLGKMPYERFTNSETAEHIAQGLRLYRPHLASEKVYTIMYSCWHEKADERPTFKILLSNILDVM
# PROTOCOL TEXT: biochemical
# PROTOCOL CONDITIONS: read-out: BTK inhibition (%), 0.75 uM BTK, […] probe 3l, 15 min preincubation
Could you please report measured inhibition at 10 µM for the items listed next?
Use % as the unit, but write only the number.

// query // inhibition at 10 µM lookup, key: Clc1ccc(COC(Cn2ccnc2)c2ccc(Cl)cc2Cl)cc1 (stereo not drawn) [PCM-0085902]
// result 7.8

// query Which inhibition at 10 µM reading was recorded for the compound CCOC(=O)c1cnc2ccc(-c3cncc(NS(=O)(=O)c4ccccc4)c3)cn12 [PCM-0215311] ?
// result -4.1

// query Recorded inhibition at 10 µM for CCOc1ccc(Cc2cc([C@@H]3O[C@H](CO)[C@@H](O)[C@H](O)[C@H]3O)ccc2Cl)cc1 [PCM-0095107] , please?
// result -2.1

// query What value of inhibition at 10 µM has been reported for the following compound? C[C@H](Nc1ncnc2nc[nH]c12)c1cc2ccc(F)cc2nc1-c1ccccn1 [PCM-0215539]
// result 3.4

// query Return reported inhibition at 10 µM; argument: Cc1sc2c(c1C)C(c1ccc(Cl)cc1)=N[C@@H](CC(N)=O)c1nnc(C)n1-2 [PCM-0215329]
// result -14.7

// query Look up inhibition at 10 µM: Oc1ccc2ccccc2c1SSc1c(O)ccc2ccccc12 [PCM-0065009]
// result 17.2

// query What value of inhibition at 10 µM has been reported for the following compound? CN1CCN(C2=Nc3cc(Cl)ccc3Nc3ccccc32)CC1 [PCM-0064549]
// result 4.7

// query Would you kindly share the measured inhibition at 10 µM for COc1ccc(COc2cc3oc(=O)c4cc(C(C)O)ccc4c3cc2OC)cc1 (stereo not drawn) [PCM-0095280] ?
// result 15.2

// query Which inhibition at 10 µM is reported for this compound? COC(=O)C1=CO[C@@H](O[C@@H]2O[C@H](CO)[C@@H](O)[C@H](O)[C@H]2O)[C@@H]2C(CO)=CC[C@H]12 [PCM-0087450]
// result -1.6

// query // inhibition at 10 µM lookup, key: COc1cc(C(=O)N2CCC(N3CCN(C)CC3)CC2)ccc1Nc1ncc2c(n1)N(C)c1ccccc1C(=O)N2C [PCM-0215491]
// result 2.8

// query // lookup inhibition at 10 µM for CC(C)C[C@H](NP(=O)(O)O[C@@H]1O[C@@H](C)[C@H](O)[C@@H](O)[C@H]1O)C(=O)N[C@@H](Cc1c[nH]c2ccccc12)C(=O)O [PCM-0215347]
// result 14.7

// query For CCOc1cc(C=O)ccc1OC(C)=O [PCM-0216281] , what is its reported inhibition at 10 µM?
// result 4.6

// query Which inhibition at 10 µM value is on record for Nc1cc(C(Cl)=C(Cl)Cl)c(S(N)(=O)=O)cc1S(N)(=O)=O [PCM-0086106] ?
// result -3.9

// query Query (compound): CCN[C@H]1CN(CCCOC)S(=O)(=O)c2sc(S(N)(=O)=O)cc21 [PCM-0086056] ; field requested: inhibition at 10 µM
// result -11.7

// query Look at this compound and give its reported inhibition at 10 µM. CC(C)NC[C@@H](C(=O)N1CCN(c2ncnc3c2[C@H](C)C[C@H]3O)CC1)c1ccc(Cl)cc1 [PCM-0095420]
// result -4.1
